tested on: OVCAR-5 complex spheroids with HUVEC/MSC, viability, % test/control; test: Anticancer human tumor OVCAR-5 cell line growth inhibition [AhR]; settings: second compound 10 µM; first compound 0.01 µM; hits give low values;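 also: spheroids exposed to compounds for 7 days; 100% = DMSO vehicle control wells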
assay_readout: viability, T/C (%)
Provide only the numeric value, understood in %.

Notebook: pull reported viability, T/C for OVCAR-5 complex spheroids with HUVEC/MSC, viability, % test/control, entry CC[C@@]1(O)C(=O)OCc2c1cc1n(c2=O)Cc2cc3c(CN(C)C)c(O)ccc3nc2-1 + Cc1cncc(-c2nc(NCCc3c[nH]c4ccccc34)c3ncn(C(C)C)c3n2)c1
16.5

Input CC1COCCN1c1cc(-c2ccnn2C)c2ccnc(-c3ccn[nH]3)c2n1 (configuration not stated) + CC(CO)NC(=O)c1cc(-c2ccc(Cl)cc2)nn(-c2cnn(C)c2)c1=O
103

Input Cn1ncnc1C1c2n[nH]c(=O)c3cc(F)cc(c23)NC1c1ccc(F)cc1 (configuration not stated) + Cc1ccccc1N=Nc1ccc(NC(=O)c2ccnn2C)c(C)c1
105

Continuing:
Notebook: pull reported viability, T/C for OVCAR-5 complex spheroids with HUVEC/MSC, viability, % test/control, entry CC[C@@]1(O)C(=O)OCc2c1cc1n(c2=O)Cc2cc3c(CN(C)C)c(O)ccc3nc2-1 + Cc1ccccc1N=Nc1ccc(NC(=O)c2ccnn2C)c(C)c1
89

Input Nc1ncn(C2CC(O)C(CO)O2)c(=O)n1 (configuration not stated) + Cc1ccccc1N=Nc1ccc(NC(=O)c2ccnn2C)c(C)c1
109

Input Nc1ncn(C2CC(O)C(CO)O2)c(=O)n1 (configuration not stated) + CC(CO)NC(=O)c1cc(-c2ccc(Cl)cc2)nn(-c2cnn(C)c2)c1=O
99.9

Input CC[C@@]1(O)C(=O)OCc2c1cc1n(c2=O)Cc2cc3c(CN(C)C)c(O)ccc3nc2-1 + CC(CO)NC(=O)c1cc(-c2ccc(Cl)cc2)nn(-c2cnn(C)c2)c1=O
87.4

Input CC1COCCN1c1cc(-c2ccnn2C)c2ccnc(-c3ccn[nH]3)c2n1 (configuration not stated) + Cc1ccccc1N=Nc1ccc(NC(=O)c2ccnn2C)c(C)c1
106

Input Cn1ncnc1C1c2n[nH]c(=O)c3cc(F)cc(c23)NC1c1ccc(F)cc1 (configuration not stated) + CC(CO)NC(=O)c1cc(-c2ccc(Cl)cc2)nn(-c2cnn(C)c2)c1=O
95.5
